Each recorded value in this set is attributed to patent US20250297029A1.

Reported values of Kd for individual entries
# experimental target: T1, GPC3 (UniProt P51654 25-559, limits assumed)
# T1 construct: also called antigen GPC3; Glypican 3
# T1 sequence (P51654 25-559 limits assumed): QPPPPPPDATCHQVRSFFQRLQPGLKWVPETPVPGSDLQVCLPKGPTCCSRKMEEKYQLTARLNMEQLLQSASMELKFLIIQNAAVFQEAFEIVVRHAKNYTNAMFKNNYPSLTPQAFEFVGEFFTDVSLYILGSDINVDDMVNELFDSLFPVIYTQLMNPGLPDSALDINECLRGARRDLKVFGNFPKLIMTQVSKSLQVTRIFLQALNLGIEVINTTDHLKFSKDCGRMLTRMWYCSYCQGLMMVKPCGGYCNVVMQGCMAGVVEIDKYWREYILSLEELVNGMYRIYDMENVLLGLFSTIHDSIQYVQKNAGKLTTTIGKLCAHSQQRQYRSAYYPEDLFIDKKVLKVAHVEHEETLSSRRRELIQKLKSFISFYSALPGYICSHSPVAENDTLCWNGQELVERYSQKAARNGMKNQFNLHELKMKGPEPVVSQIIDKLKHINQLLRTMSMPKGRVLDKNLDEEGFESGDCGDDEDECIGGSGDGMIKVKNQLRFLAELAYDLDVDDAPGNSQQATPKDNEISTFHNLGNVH
# assay text: SPR as in Example 1 (Biacore T200; scFv-Fc captured, GPC3 in flow)

binder: VL1.M2-VH2.M9 humanized scFv (scFv, not shown: a dimerising Fc or GST) scFv: DIVMTQTPLSLSVTPGQPASISCRSSQSLVHSNGNTYLHWYLQKPGQSPQLLIYKVSSRFSGVPDRFSGSGSGTDFTLKISRVEAEDVGVYYCSQNTHVPPTFGQGTKVEIKGGGGSGGGGSGGGGSQVQLVQSGAEVKKPGASVKVSCKASGYTFTSYEMHWVRQAPGQGLEWMGALDPKGGDTAYSQKFQGRVTLTADTSTSTVYMELSSLRSEDTAVYYCTRFYSYTYWGQGTLVTVSS
Kd, nM: 8.2

binder: mouse anti-GPC3 GC33 scFv (VL-VH) (scFv, also called mouse scFv; not shown: C-terminal Fc tag (human Fc, used only for capture on the anti-human Fc chip) and any junction to it) scFv: DVVMTQTPLSLPVSLGDQASISCRSSQSLVHSNGNTYLHWYLQKPGQSPKLLIYKVSNRFSGVPDRFSGSGSGTDFTLKISRVEAEDLGVYFCSQNTHVPPTFGSGTKLEIKGGGGSGGGGSGGGGSQVQLQQSGAELVRPGASVKLSCKASGYTFTDYEMHWVKQTPVHGLKWIGALDPKTGDTAYSQKFKGKATLTADKSSSTAYMELRSLTSEDSAVYYCTRFYSYTYWGQGTLVTVSA
Kd, nM: 4

binder: VL1.M8-VH2.M6 humanized scFv (scFv, not shown: a dimerising Fc or GST) scFv: DIVMTQTPLSLSVTPGQPASISCRSSQSLVHSNGNTYLHWYLQKPGQSPQLLIYKVSSRFSGVPDRFSGSGSGTDFTLKISRVEAEDVGVYYCSQNTHWPPTFGQGTKVEIKGGGGSGGGGSGGGGSQVQLVQSGAEVKKPGASVKVSCKASGYTFTSYEMHWVRQAPGQGLEWMGALDPKTGDTAYSQKFQGRVTLTADTSTSTVYMELSSLRSEDTAVYYCTRFYSYTYWGQGTLVTVSS
Kd, nM: 44
